tested on: NCI-H23 complex spheroids with HUVEC/MSC, viability; test: Anticancer human tumor NCI-H23 cell line growth inhibition [RAS]; conditions: second compound 0.1 µM; first compound 0.00949 µM; stronger effect = lower value;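 further: spheroids exposed to compound for 7 days; 100% = DMSO vehicle control viability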
I'd be grateful if you could share measured viability, T/C for these entries.
One number for each entry, in %.

Can you give me viability, T/C for all of these, one by one?
1. CCc1c2c(nc3ccc(O)cc13)-c1cc3c(c(=O)n1C2)COC(=O)[C@]3(O)CC + C#Cc1c(F)ccc2cc(O)cc(-c3ncc4c(N5CC6CCC(C5)N6)nc(OCC56CCCN5CC(F)C6)nc4c3F)c12
2. CC1(C)CCC(Nc2ncc(C(F)(F)F)c(-c3c[nH]c4c(P(C)(C)=O)c(C#N)ccc34)n2)CN1 (centres undefined) + C=CC(=O)N1CCN(c2nc(OCC3CCCN3C)nc3c(F)c(-c4nc(N)cc(C)c4C(F)(F)F)c(Cl)cc23)C(C)C1
3. CCc1c2c(nc3ccc(O)cc13)-c1cc3c(c(=O)n1C2)COC(=O)[C@]3(O)CC + C=CC(=O)N1CCN(c2nc(OCC3CCCN3C)nc3c(F)c(-c4nc(N)cc(C)c4C(F)(F)F)c(Cl)cc23)C(C)C1

Solution:
1. 28.2
2. 23.1
3. 6.47

viability, T/C reported for this compound CC1(C)CCC(Nc2ncc(C(F)(F)F)c(-c3c[nH]c4c(P(C)(C)=O)c(C#N)ccc34)n2)CN1 (centres undefined) + C#Cc1c(F)ccc2cc(O)cc(-c3ncc4c(N5CC6CCC(C5)N6)nc(OCC56CCCN5CC(F)C6)nc4c3F)c12 : 60.6

====

test system: NCI-H23 complex spheroids with HUVEC/MSC, viability; experiment: Anticancer human tumor NCI-H23 cell line growth inhibition [RAS]; conditions: second compound 0.0949 µM; first compound 10 µM; stronger effect = lower value;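 further: spheroids exposed to compound for 7 days; 100% = DMSO vehicle control viability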
I'd be grateful if you could share measured viability, T/C for these entries.
Answers are plain numbers, in %.

# molecule, test_target, measure_name, value
data = [
    ("CC(Nc1ccc2c(c1)OCCn1cc(N3C(=O)OCC3C(F)F)nc1-2)C(N)=O (configuration not stated) + CCn1c(-c2cc(N3CCN(C)CC3)cnc2C(C)OC)c2c3cc(ccc31)-c1csc(n1)CC(NC(=O)C1CC1C)C(=O)N1CCCC(N1)C(=O)OCC(C)(C)C2", "NCI-H23 complex spheroids with HUVEC/MSC, viability", "viability, T/C", 10.8),
]

Kindly review the next molecule as well.
viability, T/C reported for this molecule CC(=O)OC12COC1CC(O)C1(C)C(=O)C(O)C3=C(C)C(OC(=O)C(O)C(NC(=O)OC(C)(C)C)c4ccccc4)CC(O)(C(OC(=O)c4ccccc4)C21)C3(C)C (configuration not stated) + CCn1c(-c2cccnc2C(C)OC)c2c3cc(ccc31)N1CCOC(CC(NC(=O)C(C(C)C)N(C)C(=O)C3(F)CCN(C(=O)C#CC(C)(C)N(C)C)CC3)C(=O)N3CCCC(N3)C(=O)OCC(C)(C)C2)C1 : 16.1

====

I'd be grateful if you could share measured viability, T/C for these entries.
test system: NCI-H23 complex spheroids with HUVEC/MSC, viability; assay: Anticancer human tumor NCI-H23 cell line growth inhibition [RAS]; conditions: second compound 0.316 µM; first compound 0.1 µM; stronger effect = lower value;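 further: spheroids exposed to compound for 7 days; 100% = DMSO vehicle control viability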
Answers are plain numbers, in %.

# compound, viability, T/C [%]
data = [
    ("Nc1ccn(C2OC(CO)C(O)C2(F)F)c(=O)n1 (stereo not given) + C=CC(=O)N1CCN(c2nc(OCC3CCCN3C)nc3c(F)c(-c4nc(N)cc(C)c4C(F)(F)F)c(Cl)cc23)C(C)C1", 1.47),
    ("CCN1CCN(Cc2ccc(Nc3ncc(F)c(-c4cc(F)c5nc(C)n(C(C)C)c5c4)n3)nc2)CC1 + C=CC(=O)N1CCN(c2nc(OCC3CCCN3C)nc3c(F)c(-c4nc(N)cc(C)c4C(F)(F)F)c(Cl)cc23)C(C)C1", 20.5),
    ("CC(Nc1ccc2c(c1)OCCn1cc(N3C(=O)OCC3C(F)F)nc1-2)C(N)=O (stereo not given) + C#Cc1c(F)ccc2cc(O)cc(-c3ncc4c(N5CC6CCC(C5)N6)nc(OCC56CCCN5CC(F)C6)nc4c3F)c12", 107),
    ("C=CC(=O)Nc1cc(Nc2nccc(-c3cn(C)c4ccccc34)n2)c(OC)cc1N(C)CCN(C)C + C=CC(=O)N1CCN(c2nc(OCC3CCCN3C)nc3c(F)c(-c4nc(N)cc(C)c4C(F)(F)F)c(Cl)cc23)C(C)C1", 32),
]

Kindly review the next compound as well.
viability, T/C reported for this compound O=C(c1ccc(F)c(F)c1Nc1ccc(I)cc1F)N1CC(O)([C@@H]2CCCCN2)C1 + C=CC(=O)N1CCN(c2nc(OCC3CCCN3C)nc3c(F)c(-c4nc(N)cc(C)c4C(F)(F)F)c(Cl)cc23)C(C)C1 : 28

====

I'd be grateful if you could share measured viability, T/C for these entries.
test system: NCI-H23 complex spheroids with HUVEC/MSC, viability; experiment: Anticancer human tumor NCI-H23 cell line growth inhibition [RAS]; details: second compound 0.00316 µM; first compound 10 µM; stronger effect = lower value;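 further: spheroids exposed to compound for 7 days; 100% = DMSO vehicle control viability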
Numbers only, in %.

# compound, viability, T/C / %
measured = [
    ("Cc1nc(N2CCC3(CC2)COC(C)C3N)c(CO)nc1Sc1ccnc(N)c1Cl (stereo not drawn) + C=CC(=O)N1CCN(c2nc(OCC3CCCN3C)nc3c(F)c(-c4nc(N)cc(C)c4C(F)(F)F)c(Cl)cc23)C(C)C1", 25.4),
    ("CC(C)NCC(C(=O)N1CCN(c2ncnc3c2C(C)CC3O)CC1)c1ccc(Cl)cc1 (stereo not drawn) + C=CC(=O)N1CCN(c2nc(OCC3CCCN3C)nc3c(F)c(-c4nc(N)cc(C)c4C(F)(F)F)c(Cl)cc23)C(C)C1", 29.2),
]

Kindly review the next compound as well.
viability, T/C reported for this compound C[C@@H](NC(=O)c1ncnc(N)c1Cl)c1ncc(C(=O)Nc2cc(C(F)(F)F)c(Cl)cn2)s1 + C=CC(=O)N1CCN(c2nc(OCC3CCCN3C)nc3c(F)c(-c4nc(N)cc(C)c4C(F)(F)F)c(Cl)cc23)C(C)C1 : 59.6

====

test system: NCI-H23 complex spheroids with HUVEC/MSC, viability; assay: Anticancer human tumor NCI-H23 cell line growth inhibition [RAS]; conditions: second compound 10 µM; first compound 1 µM; stronger effect = lower value;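 further: spheroids exposed to compound for 7 days; 100% = DMSO vehicle control viability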
measure_name: viability, T/C (%)
Numbers only, in %.

// below: answered molecules
# molecule, test_target, value
records = [
    ("CC(Nc1ccc2c(c1)OCCn1cc(N3C(=O)OCC3C(F)F)nc1-2)C(N)=O (stereo not drawn) + C#Cc1c(F)ccc2cc(O)cc(-c3ncc4c(N5CC6CCC(C5)N6)nc(OCC56CCCN5CC(F)C6)nc4c3F)c12", "NCI-H23 complex spheroids with HUVEC/MSC, viability", 23.4),
    ("C=CC(=O)N1CCN(c2nc(OCC3CCCN3C)nc3c(F)c(-c4nc(N)cc(C)c4C(F)(F)F)c(Cl)cc23)C(C)C1 (stereo not drawn) + C#Cc1c(F)ccc2cc(O)cc(-c3ncc4c(N5CC6CCC(C5)N6)nc(OCC56CCCN5CC(F)C6)nc4c3F)c12", "NCI-H23 complex spheroids with HUVEC/MSC, viability", 33.5),
    ("Nc1ccn(C2OC(CO)C(O)C2(F)F)c(=O)n1 (stereo not drawn) + C#Cc1c(F)ccc2cc(O)cc(-c3ncc4c(N5CC6CCC(C5)N6)nc(OCC56CCCN5CC(F)C6)nc4c3F)c12", "NCI-H23 complex spheroids with HUVEC/MSC, viability", 3.79),
    ("CC1(O)CCCC1n1c(=O)c(C(F)F)cc2cnc(NC3CCN(S(C)(=O)=O)CC3)nc21 (stereo not drawn) + C#Cc1c(F)ccc2cc(O)cc(-c3ncc4c(N5CC6CCC(C5)N6)nc(OCC56CCCN5CC(F)C6)nc4c3F)c12", "NCI-H23 complex spheroids with HUVEC/MSC, viability", 27.6),
    ("CCN1CCN(Cc2ccc(Nc3ncc(F)c(-c4cc(F)c5nc(C)n(C(C)C)c5c4)n3)nc2)CC1 + C#Cc1c(F)ccc2cc(O)cc(-c3ncc4c(N5CC6CCC(C5)N6)nc(OCC56CCCN5CC(F)C6)nc4c3F)c12", "NCI-H23 complex spheroids with HUVEC/MSC, viability", 21),
]

Can you give me viability, T/C for all of these, one by one?
1. C[C@@H](NC(=O)c1ncnc(N)c1Cl)c1ncc(C(=O)Nc2cc(C(F)(F)F)c(Cl)cn2)s1 + C#Cc1c(F)ccc2cc(O)cc(-c3ncc4c(N5CC6CCC(C5)N6)nc(OCC56CCCN5CC(F)C6)nc4c3F)c12
2. CCC(CC)c1cc(NC2CCC(N)C2)n2nccc2n1 (stereo not drawn) + C#Cc1c(F)ccc2cc(O)cc(-c3ncc4c(N5CC6CCC(C5)N6)nc(OCC56CCCN5CC(F)C6)nc4c3F)c12
3. CC(C)NCC(C(=O)N1CCN(c2ncnc3c2C(C)CC3O)CC1)c1ccc(Cl)cc1 (stereo not drawn) + C#Cc1c(F)ccc2cc(O)cc(-c3ncc4c(N5CC6CCC(C5)N6)nc(OCC56CCCN5CC(F)C6)nc4c3F)c12

Solution:
1. 41.1
2. 37.9
3. 26.1
